Cited source: paper PMC6028718

- Tested on: XoxF5
- Construct: His-tagged, expressed in native host Methylomonas sp; LW13 (wild-type) grown with Ce3+; Ni-NTA purified
- Assay info: PMS-mediated DCPIP reduction at […] nm
- Assay type: biochemical
- Conditions: pH 9.0, 45 mM NH4Cl, ~26°C, 1 mM PMS, 150 μM DCPIP; Ce3+-grown enzyme; read-out: Methylomonas sp. LW13 XoxF5 / Km
Measured property: Km (µM)

These solved cases illustrate the format of a correct answer.
>>> observed("CCCCO [Butanol]")
96
>>> observed("CO [Methanol]")
39

I: CCCCCCO [Hexanol]
II: CCO [Ethanol]
Identify the entry with the larger Km. Options: I and II Use the label to indicate which entry you chose.
II
(II: 85 µM, I: 40 µM)
